- System: LOX IMVI melanoma
- assay text: NCI-60 one-dose screen, 48 h (100 = growth as untreated, 0 = no growth, -100 = all killed)
- setup conditions: 10 µM
Compounds without any hit were thinned out: in the full panel of roughly 83,000, 20% have a hit. Activity calls are given as the source filed them. How the source made its calls: active means growth percent below 10; inactive means the rest.
Entries and their measured growth follow.

INSERT INTO results (molecule, result) VALUES
  ('COc1ccc(-c2nn(-c3cccc(Cl)c3)cc2-c2cc(-c3ccccc3)[nH]c(=O)c2C#N)cc1', '55.6% (inactive)'),
  ('Clc1nc2ccc(Br)cc2cc1-c1nc2ccccc2[nH]1', '69.5% (inactive)'),
  ('Cc1ccc2nc(Cl)c(-c3nc4ccccc4o3)cc2c1', '82.8% (inactive)'),
  ('O=C(CCl)Nc1ccc(Cc2ccc(NC(=O)CCl)cc2)cc1', '-84.6% (active)'),
  ('CC(CN(C)C)Oc1ccccc1NC1=C(Cl)C(=O)C(Nc2ccccc2OC(C)CN(C)C)=C(Cl)C1=O (stereo not given)', '-80.6% (active)'),
  ('CCN(CC)CCOC(=O)c1cc(OCc2ccccc2)c(OCc2ccccc2)c(OCc2ccccc2)c1', '-16.9% (active)'),
  ('CN(C)c1ccc(/C=N/NC(=O)c2ccccc2Nc2cccc(C(F)(F)F)c2)cc1', '65.3% (inactive)'),
  ('COc1cc2c(Nc3ccc(S(N)(=O)=O)cc3)ncnc2c(OC)c1OC', '99.9% (inactive)'),
  ('CN(C)CCCSc1ccccc1NC1=C(Cl)C(=O)C(Nc2ccccc2SCCCN(C)C)=C(Cl)C1=O', '-81.7% (active)'),
  ('COc1ccc2c(c1)OC(N)=C(C#N)C2c1cc(OC)c(OC)c(OC)c1 (stereo not given)', '12.7% (inactive)');

Item COc1cc2cc(Oc3ccc(NC(=O)c4ccc(Cl)c(C(F)(F)F)c4)cc3)c(C)nc2cc1OC has what recorded growth? 33% (inactive)

Item COc1ccc(-c2csc(NC(=O)c3ccc(Cc4n[nH]c(=O)c5cccnc45)cc3)n2)cc1 has what recorded growth? 90.3% (inactive)

Item N#CCc1csc(Cc2ccccc2)n1 has what recorded growth? 95.9% (inactive)

Item COc1cc2cc(Oc3ccc(NC(=O)Nc4ccc(Cl)c(Cl)c4)cc3)c(C)nc2cc1OC has what recorded growth? 23.1% (inactive)

Item COc1ccc(-c2nn(-c3cccc(Cl)c3)cc2-c2c(C#N)c(=O)n3[nH]c(-c4ccc(C)cc4)nc3c2C#N)cc1 has what recorded growth? 39.7% (inactive)
